# Tested on: 435261-313-R-J1-PDC complex spheroid viability;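 also: spheroids exposed to the agents for seven days before readout; percent of vehicle control viability with DMSO wells as 100%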
# Test name: Anticancer human tumor 435261-313-R-J1-PDC patient-derived colon adenocarcinoma cell line growth inhibition [GQUAD]
# Condition label: second compound 0.0316 µM; first compound 0.1 µM; hits give low values
Observation type: viability, T/C (%)

1. CC(=O)O[C@H]1C(=O)[C@@]2(C)[C@H]([C@H](OC(=O)c3ccccc3)[C@]3(O)C[C@H](OC(=O)[C@H](O)[C@@H](NC(=O)c4ccccc4)c4ccccc4)C(C)=C1C3(C)C)[C@]1(OC(C)=O)CO[C@@H]1C[C@@H]2O + Cc1[nH]c2ccc(F)cc2c1-c1nc2c3cccnc3c3ncccc3c2[nH]1	71.4
2. C=CC(=O)N1CCN(c2nc(=O)n(-c3c(C)ccnc3C(C)C)c3nc(-c4c(O)cccc4F)c(F)cc23)C(C)C1 (stereo not drawn) + Cc1[nH]c2ccc(F)cc2c1-c1nc2c3cccnc3c3ncccc3c2[nH]1	69.3
3. CC(C)n1c(=O)n(C)c2cnc3cc(F)c(-c4ccc(OCCCN5CCCCC5)nc4)cc3c21 + Cc1cnc(CNC(=O)c2c(=O)c3ccc(N4CCCN(C)CC4)nc3n3c2sc2ccccc23)cn1	68
